Cited source: patent US20260062426A1

- SYSTEM UNDER TEST: CDK2 (Homo sapiens, UniProt P24941)
- Construct: host or cells: HEK293
- METHOD DESCRIPTION: CDK2 HIBIT PQ (protein quantification), degradation
- Format: cell-based
- CONDITION PARAMETERS: Max = Maximum
VALUE TYPE: CDK2 HIBIT PQ Max (%)

INSERT INTO results (compound, system_under_test, experimental_result) VALUES
  ('CC(C)Oc1c(-c2cn[nH]c2)ncn2nc(Nc3ccc(S(=O)(=O)c4cccc(C[C@H]5C[C@@H](c6ccc7c(c6)CN(C6CCC(=O)NC6=O)C7=O)C5)c4)cc3F)nc12 (some centres unmarked) [Compound 29]', 'CDK2 (Homo sapiens, UniProt P24941)', 94),
  ('CC(C)Oc1c(-c2cn[nH]c2)ncn2nc(Nc3ccc(S(=O)(=O)N4CCCC(CN5CCC(c6ccc7c(c6)n(C)c(=O)n7C6CCC(=O)NC6=O)CC5)C4)cc3F)nc12 (centres unmarked) [Compound 72]', 'CDK2 (Homo sapiens, UniProt P24941)', 88),
  ('CC(C)Oc1c(-c2cn[nH]c2)ncn2nc(Nc3ccc(S(=O)(=O)N4CCCC(CN5CCC(c6ccc7c(N8CCC(=O)NC8=O)nn(C)c7c6)CC5)C4)cc3F)nc12 (racemic) [Compound 87]', 'CDK2 (Homo sapiens, UniProt P24941)', 90),
  ('CC(C)Oc1c(-c2cn[nH]c2)ncn2nc(Nc3ccc(S(=O)(=O)c4cccc(CN5CCC(c6cccc7c6n(C)c(=O)n7C6CCC(=O)NC6=O)CC5)c4)cc3F)nc12 (racemic) [Compound 13]', 'CDK2 (Homo sapiens, UniProt P24941)', 85),
  ('CC(C)Oc1c(-c2cn[nH]c2)ncn2nc(Nc3ccc(S(=O)(=O)c4cccc(CN5CCN(c6ccc7c(N8CCC(=O)NC8=O)nn(C)c7c6)CC5C(C)C)c4)cc3F)nc12 (single isomer, unassigned) [Compound 106]', 'CDK2 (Homo sapiens, UniProt P24941)', 94);
